Measured IC50 of individual entries
Tested on: NCI-H460;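 note: cytotoxicity determined with an MTT assay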
test-description: cells
Format: functional, cell-based
condition-description: Homo sapiens, NCI-H460, 96 h
Description: Cytotoxicity against human NCI-H460 cells after 96 hrs by MTT assay
The answer is to be given in nM; state only the numeric part.

COc1ncc(-c2cc(OCC3CCOCC3)c3nc(N)nc(C)c3c2)cc1NS(=O)(=O)c1ccc(F)cc1F
21
COc1ncc(-c2cc(OC3CCOCC3)c3nc(NC(C)=O)nc(C)c3c2)cc1NS(=O)(=O)c1ccc(F)cc1F
53
COc1ncc(-c2cc(OC3CCN(C)CC3)c3nc(N)nc(C)c3c2)cc1NS(=O)(=O)c1ccc(F)cc1F
660

Input: Name the recorded IC50 for "COc1ncc(-c2cc(OCC3CC3)c3nc(N)nc(C)c3c2)cc1NS(=O)(=O)c1ccc(F)cc1F" .
Output: 200
